Molecular target: mutant CFTR (Homo sapiens)
Sequence (P13569 with tags, fused parts or gaps DEL508-508): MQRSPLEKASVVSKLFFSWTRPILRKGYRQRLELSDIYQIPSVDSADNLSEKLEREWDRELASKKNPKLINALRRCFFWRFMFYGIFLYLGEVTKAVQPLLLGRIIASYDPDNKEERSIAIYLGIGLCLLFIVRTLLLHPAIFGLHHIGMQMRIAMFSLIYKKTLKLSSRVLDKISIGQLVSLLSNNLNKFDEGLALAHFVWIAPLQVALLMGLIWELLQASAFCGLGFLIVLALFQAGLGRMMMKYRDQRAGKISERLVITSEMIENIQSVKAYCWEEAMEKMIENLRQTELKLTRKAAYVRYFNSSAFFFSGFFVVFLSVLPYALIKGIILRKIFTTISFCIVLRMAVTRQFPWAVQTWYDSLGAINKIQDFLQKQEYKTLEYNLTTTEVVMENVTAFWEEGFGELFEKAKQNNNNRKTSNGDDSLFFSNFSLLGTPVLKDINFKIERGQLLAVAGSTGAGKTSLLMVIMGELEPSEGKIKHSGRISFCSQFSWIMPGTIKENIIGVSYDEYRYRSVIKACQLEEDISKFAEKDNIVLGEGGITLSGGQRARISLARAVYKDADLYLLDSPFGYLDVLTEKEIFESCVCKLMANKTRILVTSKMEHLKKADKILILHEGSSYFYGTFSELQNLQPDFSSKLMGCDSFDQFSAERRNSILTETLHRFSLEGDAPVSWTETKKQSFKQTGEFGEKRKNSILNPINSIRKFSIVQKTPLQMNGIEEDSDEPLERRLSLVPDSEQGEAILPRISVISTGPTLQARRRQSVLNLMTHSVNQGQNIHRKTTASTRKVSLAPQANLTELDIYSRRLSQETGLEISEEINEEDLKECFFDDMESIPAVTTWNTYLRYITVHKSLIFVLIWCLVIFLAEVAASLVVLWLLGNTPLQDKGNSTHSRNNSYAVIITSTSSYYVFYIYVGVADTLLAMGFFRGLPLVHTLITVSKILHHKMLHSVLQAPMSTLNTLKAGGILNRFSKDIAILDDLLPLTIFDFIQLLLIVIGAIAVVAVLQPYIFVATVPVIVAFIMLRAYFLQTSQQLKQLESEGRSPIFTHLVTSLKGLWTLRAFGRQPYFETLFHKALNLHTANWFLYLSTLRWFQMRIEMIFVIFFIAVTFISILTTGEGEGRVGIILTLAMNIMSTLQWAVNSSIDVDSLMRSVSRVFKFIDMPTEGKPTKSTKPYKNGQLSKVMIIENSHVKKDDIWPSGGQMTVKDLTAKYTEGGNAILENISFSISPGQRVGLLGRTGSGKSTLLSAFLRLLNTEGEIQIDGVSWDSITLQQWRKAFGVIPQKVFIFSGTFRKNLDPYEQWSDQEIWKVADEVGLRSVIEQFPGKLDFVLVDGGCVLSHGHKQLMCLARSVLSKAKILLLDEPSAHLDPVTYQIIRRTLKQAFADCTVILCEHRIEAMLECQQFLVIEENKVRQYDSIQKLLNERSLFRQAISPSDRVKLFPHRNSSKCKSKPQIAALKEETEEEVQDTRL
Experiment: Fluorescence assay for CFTR activity (halide-sensitive YFP, HS-YFP)
Details: CFBE41o- and FRT cells with stable expression of mutant CFTR
pEC50: −log10 of the molar value.
Measured Property: pEC50

Cc1nc(S(=O)(=O)N2CCOC(c3c(C(N)=O)sc4ccccc34)C2)cn1C (racemic)	< 5.70
N#Cc1cccc(S(=O)(=O)N2CCOC(c3c(C(N)=O)sc4ccccc34)C2)c1 (racemic)	< 5.70
Cc1cc(S(=O)(=O)N2CCO[C@@H](c3c(C(N)=O)sc4ccccc34)C2)ccc1F (single isomer, unassigned)	< 5.70
NC(=O)c1sc2ccccc2c1C1CN(S(=O)(=O)c2cccc(Br)c2)CCO1 (racemic)	< 5.70
NC(=O)c1sc2ccccc2c1[C@H]1CN(S(=O)(=O)c2ccc(C(F)(F)F)cc2)CCO1 (single isomer, unassigned)	> 6.00
Cc1cc(S(=O)(=O)N2CCOC(c3c(C(=O)NCCO)sc4ccccc34)C2)ccc1F (racemic)	< 5.70
N#Cc1ccc(S(=O)(=O)N2CCOC(c3c(C(N)=O)sc4ccccc34)C2)cc1 (racemic)	< 5.70
COc1ccc(Oc2ccc(S(=O)(=O)N3CCOC(c4c(C(N)=O)sc5ccccc45)C3)cc2)cc1 (racemic)	< 5.70
Cc1ccc(S(=O)(=O)N2CCO[C@H](c3c(C(N)=O)sc4ccccc34)C2)cc1F (single isomer, unassigned)	> 6.00
COc1ccccc1S(=O)(=O)N1CCOC(c2c(C(N)=O)sc3ccccc23)C1 (racemic)	< 5.70

Note: attention shifts to another entry.
[ask] Look up mutant CFTR (Homo sapiens) data: pEC50 of Cc1cc(S(=O)(=O)N2CCOC(c3c(C(=O)NC(C)C)sc4ccccc34)C2)ccc1F (racemic) , then report it.
[reply] < 5.70
